Source of measurements: patent US9771341B2

IC50 overview
# tested system: MAGL (Mus musculus)
# Construct: Proteomes (mouse brain membrane fraction or cell lysates); from tissue; host or cells: mouse brain membrane fraction (or unspecified cell lysates)
# test summary: In vitro competitive activity-based protein profiling (mouse), MAGL
# Type: biochemical
# condition set: mouse brain membrane fraction or cell lysates, 30 min preincubation at 37° C, FP-Rh probe

Some molecules with known IC50 results, for comparison:
| molecule | IC50 |
| --- | --- |
| CS(=O)(=O)N[C@H]1CCN(c2cc(C(F)(F)F)ccc2CN2CCN(C(=O)OC(C(F)(F)F)C(F)(F)F)CC2)C1 | < 100 nM |
| O=C(OC(C(F)(F)F)C(F)(F)F)N1CCN(Cc2ccc(CN3CCOCC3)cc2OC(F)(F)F)CC1 | < 100 nM |
| O=C(O)C1CCN(c2cc(CN3CCN(C(=O)OC(C(F)(F)F)C(F)(F)F)CC3)ccc2C(F)(F)F)C1 (centres unmarked) | < 100 nM |
| CS(=O)(=O)N[C@@H]1CCN(c2cc(C(F)(F)F)ccc2CN2CCN(C(=O)OC(C(F)(F)F)C(F)(F)F)CC2)C1 | < 100 nM |
| O=C(OC(C(F)(F)F)C(F)(F)F)N1CCN(Cc2ccc(CN3CCCC3)cc2OC(F)(F)F)CC1 | 100 to 1000 nM |

Problem: Quick one: IC50 of Cc1c(CN2CCC(F)CC2)cccc1CN1CCN(C(=O)OC(C(F)(F)F)C(F)(F)F)CC1 ?
Result: < 100 nM

Problem: Quick one: IC50 of Cc1c(CN2CCN(C(=O)OC(C(F)(F)F)C(F)(F)F)CC2)cccc1N1CCC(NS(C)(=O)=O)CC1 ?
Result: < 100 nM

Problem: Quick one: IC50 of O=C(OC(C(F)(F)F)C(F)(F)F)N1CCN(Cc2ccc(N3CC4CCC(C3)O4)cc2F)CC1 ?
Result: < 100 nM

Problem: Quick one: IC50 of O=C(OC(C(F)(F)F)C(F)(F)F)N1CCN(Cc2ccc(Cl)cc2N2CCC(C(=O)N3CCCC3)CC2)CC1 ?
Result: 100 to 1000 nM

* * *

inhibition at 5 mg/kg overview
# tested system: MAGL (Mus musculus, UniProt O35678)
# Construct: Proteomes (mouse brain membrane fraction or cell lysates); from tissue; host or cells: mouse brain membrane fraction (or unspecified cell lysates)
# Sequence (O35678 whole entry): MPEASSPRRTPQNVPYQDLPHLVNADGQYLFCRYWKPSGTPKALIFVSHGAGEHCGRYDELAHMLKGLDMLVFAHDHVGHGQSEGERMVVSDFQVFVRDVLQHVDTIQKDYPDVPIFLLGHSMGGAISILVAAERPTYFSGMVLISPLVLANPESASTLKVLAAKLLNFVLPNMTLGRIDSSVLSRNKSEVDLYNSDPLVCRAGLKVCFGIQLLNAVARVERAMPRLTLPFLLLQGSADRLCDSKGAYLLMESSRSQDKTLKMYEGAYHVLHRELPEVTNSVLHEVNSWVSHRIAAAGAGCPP
# test summary: Mouse brain proteomes from inhibitor treated mice, MAGL
# Type: in vivo
# condition set: 5 mg/kg oral gavage, C57Bl/6J mice, brain proteome 4 h after administration

Some molecules with known inhibition at 5 mg/kg results, for comparison:
| smiles notation | inhibition at 5 mg/kg |
| --- | --- |
| CS(=O)(=O)N[C@H]1CCN(c2cc(Cl)ccc2CN2CCN(C(=O)OC(C(F)(F)F)C(F)(F)F)CC2)C1 | > 75% |
| O=C(OC(C(F)(F)F)C(F)(F)F)N1CCN(Cc2ccc(C(F)(F)F)cc2N2CCC(CO)CC2)CC1 | 25 to 75% |

Let us examine a further case.
Problem: Quick one: inhibition at 5 mg/kg of NC(=O)C1CCN(c2cc(Cl)ccc2CN2CCN(C(=O)OC(C(F)(F)F)C(F)(F)F)CC2)CC1 ?
Result: > 75%

* * *

# tested system: ABHD6 (Mus musculus, UniProt Q8R2Y0)
# Construct: Proteomes (mouse brain membrane fraction or cell lysates); from tissue; host or cells: mouse brain membrane fraction (or unspecified cell lysates)
# Sequence (Q8R2Y0 1-336): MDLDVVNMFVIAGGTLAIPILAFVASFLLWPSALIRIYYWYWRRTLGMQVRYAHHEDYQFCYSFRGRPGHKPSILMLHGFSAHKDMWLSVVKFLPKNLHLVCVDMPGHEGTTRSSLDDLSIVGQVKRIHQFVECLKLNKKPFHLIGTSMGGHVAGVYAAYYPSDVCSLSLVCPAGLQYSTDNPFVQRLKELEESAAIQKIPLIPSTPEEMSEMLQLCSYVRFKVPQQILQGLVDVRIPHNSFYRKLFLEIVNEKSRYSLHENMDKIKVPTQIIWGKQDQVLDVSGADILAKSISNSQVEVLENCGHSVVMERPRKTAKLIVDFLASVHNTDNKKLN
# test summary: In vitro competitive activity-based protein profiling (mouse), ABHD6
# Format: biochemical
# condition set: mouse brain membrane fraction or cell lysates, 30 min preincubation at 37° C, FP-Rh probe
observable: IC50

Some compounds with known IC50 results, for comparison:
| compound | experimental result |
| --- | --- |
| O=C(OC(C(F)(F)F)C(F)(F)F)N1CCN(Cc2ccc(C(F)(F)F)cc2N2CCCC2CO)CC1 (stereo not drawn) | > 1000 nM |
| O=C(OC(C(F)(F)F)C(F)(F)F)N1CCN(Cc2cccc(Cl)c2N2CC[C@H](CF)C2)CC1 | > 1000 nM |

Let us examine a further case.
Problem: Quick one: IC50 of O=C(OC(C(F)(F)F)C(F)(F)F)N1CCN(Cc2cccc(OC(F)(F)F)c2N2CC3CCC(C2)O3)CC1 ?
Result: > 1000 nM
